- MEASUREMENT NOTES: recombinant UMI read abundance after kanamycin selection (control-corrected) (log10(CPM+1)); higher = more efficient recombination; extreme values may be limits of the assay; sequences stand for … in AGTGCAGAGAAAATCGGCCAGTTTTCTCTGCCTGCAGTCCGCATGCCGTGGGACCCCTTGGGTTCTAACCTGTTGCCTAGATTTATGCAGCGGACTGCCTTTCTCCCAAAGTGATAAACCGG…AGGTTGGTTTCACT; site = the 11-nt donor
// false (0) strictly below 0.01 in recombinant UMI read abundance (log10); true (1) otherwise

SEQUENCE STRING	LABEL VALUE
GCTCAGGCATGGACCGGTTTTCCCGGTAATCCGTATTTGTA (site GCTCAGGCTTA)	true (1)
AGCCGTTCATGGACCGGTTTTCCCGGTAATCCGTATTTGAC (site AGCCGTTCTGT)	true (1)
GATTTTCCATGGACCGGTTTTCCCGGTAATCCGTATTTGCT (site GATTGTCCTAG)	true (1)
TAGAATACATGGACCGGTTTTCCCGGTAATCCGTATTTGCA (site TAGAATACTTG)	true (1)
CGTACATCATGGACCGGTTTTCCCGGTAATCCGTATTTGCT (site CGCACATCTAG)	false (0)
CCTTTGCCATGGACCGGTTTTCCCGGTAATCCGTATTTGGC (site CCTTTGCCTGC)	false (0)
ATTGTGTCATGGACCGGTTTTCCCGGTAATCCGTATTTGAC (site AGTGTGTCTGT)	false (0)
CTCAAGCCATGGACCGGTTTTCCCGGTAATCCGTATTTGAG (site CTCAAGCCTCT)	false (0)
GGTCAGCCATGGACCGGTTTTCCCGGTAATCCGTATTTGGG (site GGTCAGCCTCC)	false (0)
TATAGGACATGGACCGGTTTTCCCGGTAATCCGTATTTGAT (site TATAGGACTAT)	true (1)

Consider now this further sequence.
Exam item: Record CGAACGACATGGACCGGTTTTCCCGGTAATCCGTATTTGTT (site CGAACGACTAA) ; criterion: recombinant UMI read abundance (log10) no lower than 0.01. Met?
Marked response: true (1)

* * *

- MEASUREMENT NOTES: recombinant barcode read abundance after kanamycin selection (control-corrected) (log10(CPM+1)); higher = more efficient recombination; sequences stand for … in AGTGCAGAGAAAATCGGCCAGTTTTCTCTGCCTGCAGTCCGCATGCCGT…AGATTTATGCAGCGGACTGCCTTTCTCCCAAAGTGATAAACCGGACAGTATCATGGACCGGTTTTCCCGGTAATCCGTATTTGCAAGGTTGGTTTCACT; site = the 11-nt target
sequences and their reported recombinant barcode read abundance (log10)
API doc: respond with a numeric literal and nothing else, no unit.

Illustrative cases are given below, each with its answer.
SEQUENCE STRING	RESULT NUMBER
CTTGGTTCTTGGGTTCTAACCTGTTGCTT (site CTGGGTCCTAA)	0.0304
AAAATATCTTGGGTTCTAACCTGTTGCCT (site TCGTACCCTTT)	0.0268
GTAATAGCTTGGGTTCTAACCTGTTGCAT (site GTAATAGCTAT)	2
TCAGAGGCTTGGGTTCTAACCTGTTGCTG (site TCTGAGGCTCA)	0.156
CTCCTAGCTTGGGTTCTAACCTGTTGCTT (site CTCCGAGCTTA)	0.00954

Proceeding to the next sequence to report its recombinant barcode read abundance (log10).
Exam item: Given ATGCCCTCTTGGGTTCTAACCTGTTGCCT (site ATGTCCTCTAG) , respond with its recombinant barcode read abundance (log10).
Marked response: 0.0521
